B1: TPR 5TU (parent)
chain: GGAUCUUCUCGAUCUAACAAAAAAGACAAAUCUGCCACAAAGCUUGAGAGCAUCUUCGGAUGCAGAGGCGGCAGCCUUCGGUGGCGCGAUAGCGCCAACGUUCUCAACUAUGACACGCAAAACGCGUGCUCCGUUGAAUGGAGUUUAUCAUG

- Variants of: B1
- method-notes: polymerase ribozyme fitness, log enrichment relative to wild type (log ratio); higher = more active; in vitro selection for triplet polymerase activity
This sample holds only a part of the variants without activity.

mutant-label	polymerase ribozyme fitness (log ratio)
A24U U31G A52C G65A G84C C87U A119G	≤ -4.2
G92U C93U	-2.13
U55A U56A G80U U111A	≤ -4.2
A66G G68C U102A	≤ -4.2
A40U U82G G92A	-2.82
G11U A17C A37U A121U A122U	-3.25
G11A G34C A47G C103G A121U	≤ -4.2
G58A A73U U101G U102A U109A	≤ -4.2
C27A G86A G94A U102G C132U G133U U134A	≤ -4.2
A24G C57U	-3.7
G50A U53A A91U G124A C131G A137C	≤ -4.2
C10A A41G C103A A110G	≤ -4.2
A52G C75A G84U A110U	≤ -4.2
G84U C96A C103U A113U	≤ -4.2
A23U G74U U82G	≤ -4.2
U61A U144C	-2.19
A29C G58U	-4.16
C57G G86A	-1
U7A U33G C79A C116U U144C	≤ -4.2
A41G G42U A66U G74A U151G	≤ -4.2
A29C A30C G65A C93U G136A	≤ -4.2
A49C A73G A91G C108U A119C C125A	≤ -4.2
C14G C69G C96A G124A	-3.69
U4G U33G C75A C87G U109A A113U G117U	≤ -4.2
A23U A26U C51A A66U C85U U148C	≤ -4.2
A29U G50A G58C A60C G88A C116G U139A G141C G143C	-3.79
U4G A19U C43U C87U A98G	≤ -4.2
G48C C69A C149U	-2.77
C32A C87U	-3.44
G88U C99U	-4.12
C36G U56A G94U A97C A120U C125U	≤ -4.2
A47C G50C U53A A89G A106U A120C G136A	≤ -4.2
U9A C14U A49U C51U G86U A89U	≤ -4.2
A47G A115C	-0.724
G100U U144G	-3.5
A64C A73U G84A U102G C116A	≤ -4.2
U15G U56G U77C C87G G94A U104G A106U C123U	≤ -4.2
U7G C10A C51A U82G G88A C108U U111C G133U G143C	≤ -4.2
A119U	-0.546
G50A A52C G84U A122U G141U	-3.68
A3U C5G C18U U31A C76U G94U	-1.46
C93G U102G	≤ -4.2
A12U C14U G50C A60G G74U C85U	≤ -4.2
C36A C57U A66C C99A	≤ -4.2
C43U A52C C57U G83A A89C	≤ -4.2
A16G A20C C35A U44A A47G C129U G140C	≤ -4.2
